Reference for the values: the RNAGym collection of RNA variant scans (doi:10.1126/science.aae0568)

B1: tRNA (parent)
chain: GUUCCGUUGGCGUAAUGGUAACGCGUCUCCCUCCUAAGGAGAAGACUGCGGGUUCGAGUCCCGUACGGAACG

- Variants of: B1
- RUN_DESCRIPTION: yeast fitness relative to wild type (ratio to wild type); higher = fitter; tRNA-Arg(CCU), competitive growth, 37 C, YPD
Variants at the floor of the assay were thinned out.
Parameter threshold = 0.6. Response is label 1 when yeast fitness meets or exceeds it, else label 0.

Exercise: Could you please find out whether GUUCCGAUGGCGUGAUGGUAACGCGUCUCCUUCCUAAGCCGAAGUCUGCGGGUUCGAGUCCCGUACGCAACG [U7A A14G C31U G39C A40C A45U G68C] has yeast fitness that meets 0.6 or exceeds it?
Key: label 0

Exercise: Could you please find out whether GUUCCGUUAGCUUUAUGGUAACGCGUCUCCCUCCUAAGGAGAAGACUGCGGGACCGAGUCCCGUACGGAACG [G9A G12U A14U U53A U54C] has yeast fitness that meets 0.6 or exceeds it?
Key: label 0

Exercise: Could you please find out whether GUUCCGUUGGCGUAAUGGUAACGCGUCUCCCUCCUGAGGAGGAGACUGGGGGUUCGAGUCCCGUACGGAACG [A36G A42G C49G] has yeast fitness that meets 0.6 or exceeds it?
Key: label 0

Exercise: Could you please find out whether GUUCCGUUGGCGUAAUGGUCACGCGUCUCCCUCCUAAGGAGAAGACUGCGGGUUCGAGUCUCGUACGGAACG [A20C C61U] has yeast fitness that meets 0.6 or exceeds it?
Key: label 1

Exercise: Could you please find out whether GGUCCGUUGGCGUAAUGGUAACGCGUCUGCCUCCUAAGGAGAAGACUGGGGGUUCGAGUCCCGUACGGAACG [U2G C29G C49G] has yeast fitness that meets 0.6 or exceeds it?
Key: label 0

Exercise: Could you please find out whether GUUCCGUUGGCGUAAUGGUAACGCGUCUCCCUCCUUAGGAGAAGAGUGCGGGUUCGAGUCCAGUACGGAACG [A36U C46G C62A] has yeast fitness that meets 0.6 or exceeds it?
Key: label 0

Exercise: Could you please find out whether GUUACGUUGGCGUAACGGUAACGCGUCUCCCUUCUAAGGAGGAGACUGCGGGUUCGAGUCCCGUACGGAACG [C4A U16C C33U A42G] has yeast fitness that meets 0.6 or exceeds it?
Key: label 0

Exercise: Could you please find out whether GUUCCGUUGGCGUAAUGGUGACGCGUCUCCUUCCUAAGGAGAAGACUGCGGGUUCGCGUCCCGAACGAAACG [A20G C31U A57C U64A G68A] has yeast fitness that meets 0.6 or exceeds it?
Key: label 0

Exercise: Could you please find out whether GUUCCGUUGGCGUAAUGGUAACGCGUCUCCCUCCUAAGGAGAAGACUGCGGGUUCGAGAUCCGUACGGAACG [U59A C60U] has yeast fitness that meets 0.6 or exceeds it?
Key: label 1
